- System: FGFR-4 kinase (Homo sapiens)
- Experimental Details: FGFR-4 kinase activity, homogeneous time-resolved fluorescence (HTRF) method
- Type: biochemical
- Applied Conditions: Table 2; ATP 25 μM, FGFR-4 kinase 1 nM; read-out: FGFR4 IC50
Outcome Measure: IC50 (nM)

{"Molecule": "C=CC(=O)Nc1cc(-c2cc3c(cn2)cc(-c2c(Cl)c(OC)cc(OC)c2Cl)c2nccn23)c(OC)cc1N1C[C@@H]2C[C@H]1CO2 [Example 61]", "System": "FGFR-4 kinase (Homo sapiens)", "Display Unit": "nM", "Reported Value": 1.7}
{"Molecule": "C=CC(=O)Nc1cc(-c2cc3c(cn2)cc(-c2c(Cl)c(OC)cc(OC)c2Cl)c2nccn23)c(OC)cc1N1CCC(N(C)C)CC1 [Example 67]", "System": "FGFR-4 kinase (Homo sapiens)", "Display Unit": "nM", "Reported Value": 0.4}
{"Molecule": "C=CC(=O)Nc1cc(-c2cc3c(cn2)cc(-c2c(Cl)c(OC)cc(OC)c2Cl)c2nccn23)c(OC)cc1N1CCC2(CCOC2)C1 (stereo not drawn) [Example 62]", "System": "FGFR-4 kinase (Homo sapiens)", "Display Unit": "nM", "Reported Value": 2.4}

A. C=CC(=O)Nc1cc(-c2cc3c(cn2)cc(-c2c(Cl)c(OC)cc(OC)c2Cl)c2nccn23)c(OC)cc1N1CCC(N2CCN(C)CC2)CC1 [Example 64]
B. C=CC(=O)N[C@H]1CCOC[C@H]1Nc1ncc2cc(-c3c(Cl)c(OC)cc(OC)c3Cl)ccc2n1 [Blu-554, reference compound]
C. C=CC(=O)Nc1cc(-c2cc3c(cn2)cc(-c2c(Cl)c(OC)cc(OC)c2Cl)c2nccn23)c(OC)cc1N1CCN(C2COC2)CC1 [Example 65]
Thanks in advance: please rank these 3 entries by IC50, highest to lowest. Answer with the labels in sequence, matching the requested order.
B, C, A

* * *

- Experimental Details: Pharmacokinetics in male SD rats, single intragastric administration
- Format: in vivo
- Applied Conditions: rat, po, 5 mg/kg suspension, plasma, first PK table, read-out: T1/2 (converted)
Outcome Measure: half-life (h)

{"Compound": "C=CC(=O)Nc1cc(-c2cc3c(cn2)cc(-c2c(Cl)c(OC)cc(OC)c2Cl)c2nccn23)c(OC)cc1N1C2CCC1COC2 [Example 6]", "Display Unit": "h", "half-life": 11.5}

a. CC#CC(=O)Nc1cc(-c2cc3c(cn2)cc(-c2c(Cl)c(OC)cc(OC)c2Cl)c2nccn23)c(OC)cc1N1C[C@@H]2C[C@H]1CO2 [Example 27]
b. C=CC(=O)N[C@H]1CCOC[C@H]1Nc1ncc2cc(-c3c(Cl)c(OC)cc(OC)c3Cl)ccc2n1 [Blu-554, reference compound]
Quick one: lower half-life, a or b ? Please respond with the label that marks your chosen entry.
b
(b: 1.64 h, a: 2.73 h)

* * *

- System: FGFR-4 kinase (Homo sapiens, UniProt P22455)
- Sequence (P22455 22-802): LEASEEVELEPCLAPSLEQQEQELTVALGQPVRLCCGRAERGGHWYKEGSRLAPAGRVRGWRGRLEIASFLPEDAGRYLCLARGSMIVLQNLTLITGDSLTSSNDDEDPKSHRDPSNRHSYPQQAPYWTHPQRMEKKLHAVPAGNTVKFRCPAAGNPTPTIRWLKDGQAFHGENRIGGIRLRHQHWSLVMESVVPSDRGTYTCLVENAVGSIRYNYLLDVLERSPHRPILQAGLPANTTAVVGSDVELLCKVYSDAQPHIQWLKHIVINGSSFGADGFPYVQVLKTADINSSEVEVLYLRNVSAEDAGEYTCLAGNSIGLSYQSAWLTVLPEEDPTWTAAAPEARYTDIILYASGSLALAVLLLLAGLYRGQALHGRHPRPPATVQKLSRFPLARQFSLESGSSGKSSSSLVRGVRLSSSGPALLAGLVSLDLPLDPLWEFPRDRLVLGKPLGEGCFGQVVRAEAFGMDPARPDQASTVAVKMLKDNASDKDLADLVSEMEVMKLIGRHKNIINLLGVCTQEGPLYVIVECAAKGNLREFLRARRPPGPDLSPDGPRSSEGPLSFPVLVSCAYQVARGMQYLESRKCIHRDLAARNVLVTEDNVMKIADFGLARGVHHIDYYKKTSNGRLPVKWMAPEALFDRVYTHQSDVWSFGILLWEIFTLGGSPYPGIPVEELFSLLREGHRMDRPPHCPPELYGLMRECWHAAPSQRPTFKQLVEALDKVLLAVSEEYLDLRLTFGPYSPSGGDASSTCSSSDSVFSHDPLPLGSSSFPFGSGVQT
- Experimental Details: FGFR-4 kinase activity, homogeneous time-resolved fluorescence (HTRF) method
- Type: biochemical
- Applied Conditions: Table 1; ATP 25 μM, FGFR-4 kinase 1 nM; read-out: FGFR4 IC50
pIC50: −log10 of the molar value. Counter-ions that a name gives are not always drawn.
Outcome Measure: pIC50

{"Molecule": "C=CC(=O)Nc1cc(-c2cc3c(cn2)cc(-c2c(Cl)c(OC)cc(OC)c2Cl)c2nccn23)c(OC)cc1N1CCN(C(C)=O)C2(CC2)C1 [Example 11]", "pIC50": 8.42}

I. C=CC(=O)N[C@H]1CCOC[C@H]1Nc1ncc2cc(-c3c(Cl)c(OC)cc(OC)c3Cl)ccc2n1 [Blu-554, reference compound]
II. C=CC(=O)Nc1cc(-c2cc3c(cn2)cc(-c2c(Cl)c(OC)cc(OC)c2Cl)c2nccn23)c(OC)cc1N1CCNC2(CC2)C1 [Example 9, trifluoroacetate]
Quick one: lower pIC50, I or II ? Please respond with the label that marks your chosen entry.
I

* * *

- Experimental Details: Pharmacokinetics in male SD rats, single intragastric administration
- Format: in vivo
- Applied Conditions: rat, po, 5 mg/kg suspension, plasma, second PK table
Outcome Measure: Cmax (ng/mL)

{"Compound": "C=CC(=O)Nc1cc(-c2cc3c(cn2)cc(-c2c(Cl)c(OC)cc(OC)c2Cl)c2nccn23)c(OC)cc1N1CCN(C2CC2)CC1", "Cmax (ng/mL)": 505}
{"Compound": "C=CC(=O)Nc1cc(-c2cc3c(cn2)cc(-c2c(Cl)c(OC)cc(OC)c2Cl)c2nccn23)c(OC)cc1N1C[C@@H]2C[C@H]1CO2", "Cmax (ng/mL)": 561}
{"Compound": "C=CC(=O)Nc1cc(-c2cc3c(cn2)cc(-c2c(Cl)c(OC)cc(OC)c2Cl)c2nccn23)c(OC)cc1N1CCC2(CCOC2)C1 (stereo not drawn)", "Cmax (ng/mL)": 175}

* * *

- Experimental Details: Pharmacokinetics in male SD rats, single intragastric administration
- Type: in vivo
- Applied Conditions: rat, po, 5 mg/kg suspension, plasma, first PK table
Outcome Measure: Tmax (h)

{"Molecule": "C=CC(=O)Nc1cc(-c2cc3c(cn2)cc(-c2c(Cl)c(OC)cc(OC)c2Cl)c2nccn23)c(OC)cc1N1C2CCC1COC2", "Tmax, h": 6}
{"Molecule": "C=CC(=O)N[C@H]1CCOC[C@H]1Nc1ncc2cc(-c3c(Cl)c(OC)cc(OC)c3Cl)ccc2n1 [Blu-554, reference compound]", "Tmax, h": 2.67}
{"Molecule": "CC#CC(=O)Nc1cc(-c2cc3c(cn2)cc(-c2c(Cl)c(OC)cc(OC)c2Cl)c2nccn23)c(OC)cc1N1C[C@@H]2C[C@H]1CO2", "Tmax, h": 3.33}

* * *

- System: FGFR-4 kinase (Homo sapiens, UniProt P22455)
- Experimental Details: FGFR-4 kinase activity, homogeneous time-resolved fluorescence (HTRF) method
- Type: biochemical
- Applied Conditions: Table 1; ATP 25 μM, FGFR-4 kinase 1 nM; read-out: FGFR4 IC50
pIC50: −log10 of the molar value.
Outcome Measure: pIC50

These solved cases illustrate the format of a correct answer.
{"Compound": "CC#CC(=O)Nc1cc(-c2cc3c(cn2)cc(-c2c(Cl)c(OC)cc(OC)c2Cl)c2nccn23)c(OC)cc1N1CCOCC1", "pIC50": 8.66}
{"Compound": "CC#CC(=O)Nc1cc(-c2cc3c(cn2)cc(-c2c(Cl)c(OC)cc(OC)c2Cl)c2nccn23)c(OC)cc1N1CCC(N2CCOCC2)CC1", "pIC50": 8.44}
{"Compound": "C=CC(=O)Nc1cc(-c2cc3c(cn2)cc(-c2c(Cl)c(OC)cc(OC)c2Cl)c2nccn23)c(OC)cc1N1CC2CCC(C1)N2C(C)=O", "pIC50": 8.76}
{"Compound": "C=CC(=O)Nc1cc(-c2cc3c(cn2)cc(-c2c(Cl)c(OC)cc(OC)c2Cl)c2nccn23)c(OC)cc1N1CCN(C)C2(CC2)C1", "pIC50": 8.41}
{"Compound": "C=CC(=O)Nc1cc(-c2cc3c(cn2)cc(-c2c(Cl)c(OC)cc(OC)c2Cl)c2nccn23)c(OC)cc1N1CCN(C(C)=O)CC1", "pIC50": 8.67}
{"Compound": "C=CC(=O)Nc1cc(-c2cc3c(cn2)cc(-c2c(Cl)c(OC)cc(OC)c2Cl)c2nccn23)c(OC)cc1N1CCC2(CCN(C)C2)C1 (stereo not shown)", "pIC50": 8.25}
{"Compound": "C=CC(=O)Nc1cc(-c2cc3c(cn2)cc(-c2c(Cl)c(OC)cc(OC)c2Cl)c2nccn23)c(OC)cc1N1CC2CCC(C1)O2", "pIC50": 8.30}
{"Compound": "C=CC(=O)Nc1cc(-c2cc3c(cn2)cc(-c2c(Cl)c(OC)cc(OC)c2Cl)c2nccn23)c(OC)cc1N1CCC2(COC2)C1", "pIC50": 8.60}

A. C=CC(=O)Nc1cc(-c2cc3c(cn2)cc(-c2c(Cl)c(OC)cc(OC)c2Cl)c2nccn23)c(OC)cc1N1CCO[C@@H](C)C1
B. C=CC(=O)Nc1cc(-c2cc3c(cn2)cc(-c2c(Cl)c(OC)cc(OC)c2Cl)c2nccn23)c(OC)cc1N1CC2COCC2C1 (stereo not shown)
Quick one: lower pIC50, A or B ? Please respond with the label that marks your chosen entry.
A

A. C=CC(=O)Nc1cc(-c2cc3c(cn2)cc(-c2c(Cl)c(OC)cc(OC)c2Cl)c2nccn23)c(OC)cc1N1CCC2(CC1)CCN(C1CC1)CC2
B. CC#CC(=O)Nc1cc(-c2cc3c(cn2)cc(-c2c(Cl)c(OC)cc(OC)c2Cl)c2nccn23)c(OC)cc1N1CCS(=O)(=O)CC1
I need your help: which of the pair A , B has higher pIC50? Please respond with the label that marks your chosen entry.
B
(B: 9.02, A: 8.24)

Hey, just so you know, these numbers are from patent US20220185811A1.
